System: A. baumannii
experiment: MIC by broth microdilution (CLSI), panel of 60 A. baumannii clinical isolates (Example 1)
condition_description: Acinetobacter baumannii, strain ARC5079; OXA-72; OXA-65
property_measured: MIC (µg/mL)
Answers are plain numbers, in µg/mL.

Guide cases for MIC, answers given:
# compound, result
measured = [
    ("C[C@H]1COc2c(N3CCN(C)CC3)c(F)cc3c(=O)c(C(=O)O)cn1c23 [LEVO, levofloxacin]", 16),
    ("CC1(C)[C@H](C(=O)O)N2C(=O)C[C@H]2S1(=O)=O [Sulbactam]", 32),
]

Next item in the queue.
Kindly note the recorded MIC for CN(C)[C@@H]1C(O)=C(C(N)=O)C(=O)[C@@]2(O)C(O)=C3C(=O)c4c(O)cccc4[C@@](C)(O)[C@H]3C[C@@H]12 [TET, tetracycline] , which is 8

---

Can you tell me MIC for the items I'm about to list?
Tested on: A. baumannii
experiment: MIC by broth microdilution (CLSI), panel of 60 A. baumannii clinical isolates (Example 1)
condition_description: Acinetobacter baumannii, strain ARC5080; OXA-71; OXA-40

# test_smiles, MIC
rows = [
    ("CN(C)[C@@H]1C(O)=C(C(N)=O)C(=O)[C@@]2(O)C(O)=C3C(=O)c4c(O)cccc4[C@@](C)(O)[C@H]3C[C@@H]12", "16 µg/mL"),
    ("C[C@@H](O)[C@H]1C(=O)N2C(C(=O)O)=C(S[C@@H]3CN[C@H](C(=O)N(C)C)C3)[C@H](C)[C@H]12", "> 32 µg/mL"),
    ("C[C@H]1COc2c(N3CCN(C)CC3)c(F)cc3c(=O)c(C(=O)O)cn1c23", "16 µg/mL"),
]

Kindly note the recorded MIC for CC1(C)[C@H](C(=O)O)N2C(=O)C[C@H]2S1(=O)=O , which is 32 µg/mL

---

Tested on: A. baumannii
experiment: MIC by broth microdilution (CLSI), panel of 60 A. baumannii clinical isolates (Example 1)
condition_description: Acinetobacter baumannii, strain ARC2636; OXA-65; OXA-40; TEM-1
property_measured: MIC (µg/mL)
Numbers only, in µg/mL.

Guide cases for MIC, answers given:
# test_smiles, target_system, u, MIC
measured = [
    ("CN(C)[C@@H]1C(O)=C(C(N)=O)C(=O)[C@@]2(O)C(O)=C3C(=O)c4c(O)cccc4[C@@](C)(O)[C@H]3C[C@@H]12", "A. baumannii", "µg/mL", 16),
    ("C[C@H]1COc2c(N3CCN(C)CC3)c(F)cc3c(=O)c(C(=O)O)cn1c23", "A. baumannii", "µg/mL", 16),
]

Next item in the queue.
Measured MIC (A. baumannii), entry CC1(C)[C@H](C(=O)O)N2C(=O)C[C@H]2S1(=O)=O : 32

---

Test system: A. baumannii
experiment: MIC by broth microdilution (CLSI), panel of 60 A. baumannii clinical isolates (Example 1)
condition_description: Acinetobacter baumannii, strain ARC5087; OXA-66; OXA-23
property_measured: MIC (µg/mL)
Numbers only, in µg/mL.

# molecule, MIC / µg/mL
records = [
    ("CC1(C)[C@H](C(=O)O)N2C(=O)C[C@H]2S1(=O)=O [Sulbactam]", 32),
]

Next item in the queue.
Kindly note the recorded MIC for C[C@@H](O)[C@H]1C(=O)N2C(C(=O)O)=C(S[C@@H]3CN[C@H](C(=O)N(C)C)C3)[C@H](C)[C@H]12 [Meropenem, meropenem] , which is 16

---

Tested on: A. baumannii
experiment: MIC by broth microdilution (CLSI), panel of 60 A. baumannii clinical isolates (Example 1)
condition_description: Acinetobacter baumannii, strain ARC5076; TEM-1; OXA-23; OXA-66
Can you tell me MIC for the items I'm about to list?
Numbers only, in µg/mL.

Guide cases for MIC, answers given:
# compound, MIC, µg/mL
records = [
    ("C[C@H]1COc2c(N3CCN(C)CC3)c(F)cc3c(=O)c(C(=O)O)cn1c23 [LEVO, levofloxacin]", 8),
    ("C[C@@H](O)[C@H]1C(=O)N2C(C(=O)O)=C(S[C@@H]3CN[C@H](C(=O)N(C)C)C3)[C@H](C)[C@H]12 [Meropenem, meropenem]", 32),
]

Next item in the queue.
Kindly note the recorded MIC for CC1(C)[C@H](C(=O)O)N2C(=O)C[C@H]2S1(=O)=O [Sulbactam] , which is 32

---

System: A. baumannii
experiment: MIC by broth microdilution (CLSI), panel of 60 A. baumannii clinical isolates (Example 1)
condition_description: Acinetobacter baumannii, strain ARC3490; TEM-1+; PSE-2; OXA-69
property_measured: MIC
Quote the value and follow it with the unit of measurement.

Quick request: MIC for each listed item, please.
1. C[C@@H](O)[C@H]1C(=O)N2C(C(=O)O)=C(S[C@@H]3CN[C@H](C(=O)N(C)C)C3)[C@H](C)[C@H]12
2. CN(C)[C@@H]1C(O)=C(C(N)=O)C(=O)[C@@]2(O)C(O)=C3C(=O)c4c(O)cccc4[C@@](C)(O)[C@H]3C[C@@H]12
3. CC1(C)[C@H](C(=O)O)N2C(=O)C[C@H]2S1(=O)=O

1. 0.5 µg/mL
2. 8 µg/mL
3. 32 µg/mL

Measured MIC (A. baumannii), entry C[C@H]1COc2c(N3CCN(C)CC3)c(F)cc3c(=O)c(C(=O)O)cn1c23 : 16 µg/mL

---

System: A. baumannii
experiment: MIC by broth microdilution (CLSI), panel of 60 A. baumannii clinical isolates (Example 1)
condition_description: Acinetobacter baumannii, strain ARC2782; OXA-66; OXA-23; TEM-1; PER-1
Can you tell me MIC for the items I'm about to list?

Guide cases for MIC, answers given:
# test_smiles, MIC
measured = [
    ("C[C@@H](O)[C@H]1C(=O)N2C(C(=O)O)=C(S[C@@H]3CN[C@H](C(=O)N(C)C)C3)[C@H](C)[C@H]12", "16 µg/mL"),
    ("CN(C)[C@@H]1C(O)=C(C(N)=O)C(=O)[C@@]2(O)C(O)=C3C(=O)c4c(O)cccc4[C@@](C)(O)[C@H]3C[C@@H]12", "> 32 µg/mL"),
    ("C[C@H]1COc2c(N3CCN(C)CC3)c(F)cc3c(=O)c(C(=O)O)cn1c23", "4 µg/mL"),
]

Next item in the queue.
Kindly note the recorded MIC for CC1(C)[C@H](C(=O)O)N2C(=O)C[C@H]2S1(=O)=O , which is 32 µg/mL

---

Can you tell me MIC for the items I'm about to list?
Test system: A. baumannii
experiment: MIC by broth microdilution (CLSI), panel of 60 A. baumannii clinical isolates (Example 1)
condition_description: Acinetobacter baumannii, strain ARC5089; PER*; TEM-1; OXA-23; OXA-66
Numbers only, in µg/mL.

Guide cases for MIC, answers given:
# test_smiles, MIC, µg/mL
measured = [
    ("C[C@@H](O)[C@H]1C(=O)N2C(C(=O)O)=C(S[C@@H]3CN[C@H](C(=O)N(C)C)C3)[C@H](C)[C@H]12", 32),
    ("C[C@H]1COc2c(N3CCN(C)CC3)c(F)cc3c(=O)c(C(=O)O)cn1c23", 16),
    ("CC1(C)[C@H](C(=O)O)N2C(=O)C[C@H]2S1(=O)=O", 32),
]

Next item in the queue.
Kindly note the recorded MIC for CN(C)[C@@H]1C(O)=C(C(N)=O)C(=O)[C@@]2(O)C(O)=C3C(=O)c4c(O)cccc4[C@@](C)(O)[C@H]3C[C@@H]12 , which is 4

---

System: A. baumannii
experiment: MIC by broth microdilution (CLSI), panel of 60 A. baumannii clinical isolates (Example 1)
condition_description: Acinetobacter baumannii, strain ARC2681; OXA-40; TEM-1; OXA-132
property_measured: MIC (µg/mL)
Answers are plain numbers, in µg/mL.

Guide cases for MIC, answers given:
# test_smiles, u, MIC
records = [
    ("C[C@H]1COc2c(N3CCN(C)CC3)c(F)cc3c(=O)c(C(=O)O)cn1c23", "µg/mL", 16),
    ("C[C@@H](O)[C@H]1C(=O)N2C(C(=O)O)=C(S[C@@H]3CN[C@H](C(=O)N(C)C)C3)[C@H](C)[C@H]12", "µg/mL", 32),
]

Kindly note the recorded MIC for CC1(C)[C@H](C(=O)O)N2C(=O)C[C@H]2S1(=O)=O , which is 16

---

Can you tell me MIC for the items I'm about to list?
Tested on: A. baumannii
experiment: MIC by broth microdilution (CLSI), panel of 60 A. baumannii clinical isolates (Example 1)
condition_description: Acinetobacter baumannii, strain ARC3489; OXA*; OXA-68

# test_smiles, MIC
data = [
    ("C[C@@H](O)[C@H]1C(=O)N2C(C(=O)O)=C(S[C@@H]3CN[C@H](C(=O)N(C)C)C3)[C@H](C)[C@H]12", "4 µg/mL"),
]

Quick request: MIC for each listed item, please.
1. C[C@H]1COc2c(N3CCN(C)CC3)c(F)cc3c(=O)c(C(=O)O)cn1c23
2. CN(C)[C@@H]1C(O)=C(C(N)=O)C(=O)[C@@]2(O)C(O)=C3C(=O)c4c(O)cccc4[C@@](C)(O)[C@H]3C[C@@H]12
3. CC1(C)[C@H](C(=O)O)N2C(=O)C[C@H]2S1(=O)=O

["16 µg/mL", "> 32 µg/mL", "2 µg/mL"]
